Where these numbers come from: BindingDB's records for doi:10.1007/bf00168610

Sequence of the target: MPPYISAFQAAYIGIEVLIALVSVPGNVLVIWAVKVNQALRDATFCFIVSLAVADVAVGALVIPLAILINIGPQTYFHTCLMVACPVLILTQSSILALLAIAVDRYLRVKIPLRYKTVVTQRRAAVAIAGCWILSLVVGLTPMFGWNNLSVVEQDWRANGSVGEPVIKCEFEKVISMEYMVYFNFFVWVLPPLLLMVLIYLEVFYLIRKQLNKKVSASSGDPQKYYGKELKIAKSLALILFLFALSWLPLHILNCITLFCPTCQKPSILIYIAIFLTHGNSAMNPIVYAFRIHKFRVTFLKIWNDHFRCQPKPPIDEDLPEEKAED
assay.endpoint: Ki (nM)
Answer in nM, number only, no unit symbol.

stdin: Entry Cn1c(=O)c2[nH]c(C3CCCC3)nc2n(C)c1=O has what Ki?
stdout: 6.3
